These measurements were taken from patent US12291515B2.

system: Human hepatoma cell HepG2; assay: CCK-8 cell proliferation assay, HepG2; format: cell-based; settings: HepG2 cells, CCK-8, 24 hrs with drug, OD 450 nm
Lab note - cut at 60 nM for IC50: rule met if strictly below, rule not met if not.

Past entries and their recorded results:
Compound | Class
COc1cccc(OC)c1C(=O)N1CCC(CCCCNC(=O)Nc2ccncc2)C1 (centres unmarked) [BSS-TP127] | rule not met
O=C(NCCCCCC1CCN(C(=O)c2occc2F)C1)Nc1ccncc1 (centres unmarked) [BSS-TP030] | rule not met
O=C(NCCCCCCCC1CCN(C(=O)c2ccco2)C1)Nc1ccncc1 (centres unmarked) [BSS-TP128] | rule not met
COc1cccc(OC)c1C(=O)N1CCC(CCCCCNC(=O)Nc2ccncc2)C1 (centres unmarked) [BSS-TP009] | rule met

Query: IC50 strictly < 60 nM for this compound? O=C(NCCCCCCC1CCN(C(=O)c2cc3ccccc3[nH]2)C1)Nc1ccncc1 (centres unmarked) [BSS-TP121]
Result: rule not met

---

system: Human gastric cancer cell MKN45; assay: CCK-8 cell proliferation assay, MKN-45; type: cell-based; details: MKN-45 cells, CCK-8, 24 hrs with drug, OD 450 nm
Property: IC50 (nM)
Give bare numbers, in nM.

Before answering, review these 6 worked examples.
Compound | Unit Descriptor | Quantitative Result
O=C(NCCCCCCC1CCN(C(=O)c2ccc[nH]2)C1)Nc1cccnc1 (stereo not shown) | nM | 59
O=C(NCCCCCC1CCN(C(=O)c2[nH]ccc2F)C1)Nc1ccncc1 (stereo not shown) | nM | 45
O=C(NCCCCCCC1CCN(C(=O)c2ccc[nH]2)C1)Nc1ccnc(F)c1 (stereo not shown) | nM | 51
O=C(NCCCCCC1CCN(C(=O)c2ccco2)C1)Nc1cc(F)nc(F)c1 (stereo not shown) | nM | 47
O=C(NCCCCCCC1CCN(C(=O)C2CCCO2)C1)Nc1ccncc1 (stereo not shown) | nM | 53
O=C(NCCCCCC1CCN(C(=O)c2ccc[nH]2)C1)Nc1ccnc(F)c1 (stereo not shown) | nM | 55

Now look at this entry.
Query: Look up and report measured IC50 for this entry: O=C(NCCCCCC1CCN(C(=O)c2cc3ccccc3[nH]2)C1)Nc1ccncc1 (stereo not shown)
Result: 53

---

test system: Human gastric cancer cell MKN45; assay: CCK-8 cell proliferation assay, MKN-45; type: cell-based; conditions: MKN-45 cells, CCK-8, 24 hrs with drug, OD 450 nm
Assign IC50 to each entry below.
Answers are plain numbers, in nM.

Record excerpt, results attached:
Compound | Property | Quantitative Result
COc1cccc(OC)c1C(=O)N1CCC(CCCCCNC(=O)Nc2cc(F)nc(F)c2)C1 (stereo not drawn) [BSS-TP032] | IC50 | 74
COc1cccc(OC)c1C(=O)N1CCC(CCCCCCNC(=O)Nc2ccncc2)C1 (stereo not drawn) [BSS-TP102] | IC50 | 30
O=C(NCCCCCC1CCN(C(=O)c2ccccc2)C1)Nc1cc(F)nc(F)c1 (stereo not drawn) [BSS-TP021] | IC50 | 65
O=C(NCCCCCC1CCN(C(=O)c2cccs2)C1)Nc1cccnc1 (stereo not drawn) [BSS-TP024] | IC50 | 81
O=C(NCCCCC[C@@H]1CCN(C(=O)c2cccs2)C1)Nc1ccncc1 [BSS-TP040] | IC50 | 31
O=C(NCCCCCCC1CCN(C(=O)C2CCCS2)C1)Nc1ccncc1 (stereo not drawn) [BSS-TP108] | IC50 | 49
O=C(NCCCCCC1CCN(C(=O)c2ccccc2)C1)Nc1ccnc(F)c1 (stereo not drawn) [BSS-TP015] | IC50 | 33
O=C(NCCCCCCC1CCN(C(=O)c2ccco2)C1)Nc1ccnc(F)c1 (stereo not drawn) [BSS-TP115] | IC50 | 40

Turning to the following compound.
Query: Give the value of IC50 reported for the following: COc1cccc(OC)c1C(=O)N1CCC(CCCCCCCNC(=O)Nc2ccncc2)C1 (stereo not drawn) [BSS-TP126]
Result: 32

---

For each record, write down the corresponding pIC50.
tested on: Human hepatoma cell HepG2; experiment: CCK-8 cell proliferation assay, HepG2; type: cell-based; details: HepG2 cells, CCK-8, 24 hrs with drug, OD 450 nm
Give bare numbers, as −log10 of the molar value.

Compound | Assayed System | Property | Quantitative Result
O=C(NCCCCCC1CCN(C(=O)c2cc3ccccc3o2)C1)Nc1cc(F)nc(F)c1 (centres unmarked) | Human hepatoma cell HepG2 | pIC50 | 6.90
O=C(NCCCCCC1CCN(C(=O)C2Cc3ccccc3O2)C1)Nc1ccncc1 (centres unmarked) | Human hepatoma cell HepG2 | pIC50 | 6.99
O=C(NCCCCCC1CCN(C(=O)c2ccccc2)C1)Nc1ccncc1 (centres unmarked) | Human hepatoma cell HepG2 | pIC50 | 7.16
O=C(NCCCCCC1CCN(C(=O)C2CCCN2)C1)Nc1ccnc(F)c1 (centres unmarked) | Human hepatoma cell HepG2 | pIC50 | 7.31
O=C(NCCCCCCC1CCN(C(=O)C2CCCS2)C1)Nc1ccncc1 (centres unmarked) | Human hepatoma cell HepG2 | pIC50 | 7.04

Look up pIC50 for the entries below, preserving their order.
1. O=C(NCCCCCCC1CCN(C(=O)c2ccco2)C1)Nc1ccnc(F)c1 (centres unmarked)
2. O=C(NCCCCCCC1CCN(C(=O)c2ccc[nH]2)C1)Nc1cc(F)nc(F)c1 (centres unmarked)
3. O=C(NCCCCCC1CCN(C(=O)c2ccc[nH]2)C1)Nc1ccnc(F)c1 (centres unmarked)
4. O=C(NCCCCCC1CCN(C(=O)c2ccccc2)C1)Nc1cc(F)nc(F)c1 (centres unmarked)
5. O=C(NCCCCCC1CCN(C(=O)c2cccs2)C1)Nc1ccncc1 (centres unmarked)
6. O=C(NCCCCCCC1CCN(C(=O)c2ccccc2)C1)Nc1ccncc1 (centres unmarked)

Result:
1: 7.10; 2: 7.28; 3: 7.11; 4: 7.38; 5: 7.29; 6: 7.30

---

Give pIC50 for every item shown.
System: Human hepatoma cell HepG2
Test: CCK-8 cell proliferation assay, HepG2
Format: cell-based
Conditions: HepG2 cells, CCK-8, 24 hrs with drug, OD 450 nm
Protocol: The effect of samples on the proliferation of human tumor cells in vitro was determined by CCK-8 cell proliferation assay. The cells were assayed through a method including the following steps: 1) The cells were digested, counted, and prepared into a cell suspension in a corresponding culture medium (Table 1) (5×10^4 cells/ml for CFPAC-1 and RPMI 8226, and 3.5×10^4 cells/ml for rest cells). […] 5) The 96-well plate was stained with CCK-8, and The OD value was determined at λ=450 nm. […]
Answers are plain numbers, as −log10 of the molar value.

// known answers, use as guide
Compound | Property | Quantitative Result
O=C(NCCCCCCCC1CCN(C(=O)c2ccccc2)C1)Nc1ccncc1 (centres unmarked) [BSS-TP131] | pIC50 | 7.17
O=C(NCCCCCCC1CCN(C(=O)C2CCCO2)C1)Nc1ccncc1 (centres unmarked) [BSS-TP107] | pIC50 | 6.86
O=C(NCCCCCCC1CCN(C(=O)c2ccccc2)C1)Nc1ccnc(F)c1 (centres unmarked) [BSS-TP113] | pIC50 | 7.08

Look at each compound and report its pIC50.
1. O=C(NCCCCCCC1CCN(C(=O)c2cccs2)C1)Nc1cc(F)nc(F)c1 (centres unmarked) [BSS-TP119]
2. COc1cccc(OC)c1C(=O)N1CCC(CCCCCCCNC(=O)Nc2ccncc2)C1 (centres unmarked) [BSS-TP126]

Result:
[7.08, 7.04]

---

test system: Human pancreatic cancer cell CFPAC-1; experiment: CCK-8 cell proliferation assay, CFPAC-1; type: cell-based; conditions: CFPAC-1 cells, CCK-8, 24 hrs with drug, OD 450 nm
I'd appreciate it if you could supply IC50 values for the items below.
Give bare numbers, in nM.

Observe how each entry below is paired with its result.
Compound | Unit Descriptor | IC50
O=C(NCCCCCCC1CCN(C(=O)c2cccs2)C1)Nc1ccnc(F)c1 (stereo not drawn) | nM | 47
COc1cccc(OC)c1C(=O)N1CCC(CCCCCCNC(=O)Nc2cc(F)nc(F)c2)C1 (stereo not drawn) | nM | 47
O=C(NCCCCCC1CCN(C(=O)c2ccccc2)C1)Nc1cc(F)nc(F)c1 (stereo not drawn) | nM | 31

Hi team, please reply with IC50 for each item in this list.
1. O=C(NCCCCCC1CCN(C(=O)C2CCCN2)C1)Nc1ccnc(F)c1 (stereo not drawn)
2. O=C(NCCCCCC1CCN(C(=O)c2ccccc2)C1)Nc1ccncc1 (stereo not drawn)
3. O=C(NCCCCCC1CCN(C(=O)c2[nH]ccc2F)C1)Nc1ccncc1 (stereo not drawn)
4. O=C(NCCCCCCC1CCN(C(=O)c2ccc[nH]2)C1)Nc1cccnc1 (stereo not drawn)
5. O=C(NCCCCCC1CCN(C(=O)c2cc3ccccc3o2)C1)Nc1cc(F)nc(F)c1 (stereo not drawn)
6. O=C(NCCCCCCC1CCN(C(=O)c2cccs2)C1)Nc1ccncc1 (stereo not drawn)

Result:
1. 34
2. 28
3. 33
4. 36
5. 42
6. 31
